All figures here come from PubChem BioAssay AID1552.

# Tested Target: Ubiquitin-conjugating enzyme E2 N (Homo sapiens)
# Procedure Text: UBE2N binders by NMR, biophysical, purified protein (AID 1552)
# Stated Conditions: NMR binding to purified UBE2N
Activity calls are given as the source filed them. How the calls were made is not given here.
Measurement Kind: Kd

Prompt: What value of Kd has been recorded for this entry: Cc1cccc(NC(=O)c2ccc(=O)[nH]n2)c1
Response: > 4 mM (inactive)

Prompt: Form field: reported Kd of CC12CCC3C(CC3(C)C)C(C)(CCC1=O)O2 (stereo unspecified)
Response: > 4 mM (inactive)

Prompt: Quick check: Kd of COc1ccc(CN2CCC(O)CC2)c(O)c1 ?
Response: > 4 mM (inactive)

Prompt: Could you share which Kd value was measured for COc1ccc(-c2nc(C)sc2CC(=O)O)cc1 ?
Response: > 4 mM (inactive)

Prompt: Can you look up the measured Kd of Cc1oc2nc3c(c(=O)[nH]c(=O)n3C)n2c1C for me?
Response: > 4 mM (inactive)

Prompt: Recorded Kd of COc1ccc(-c2c(OC)c3c(OC)c4c(cc3oc2=O)OC(C)(C)C=C4)cc1 , please.
Response: > 4 mM (inactive)
